# System: MCF7
# ASSAY REMARKS: NCI tumour cell line growth inhibition, 48 h
Active and inactive are the calls of the source. Rule as the data show it: active = GI50 up to about 1.1 µM and inactive = higher.
MEASURED METRIC: GI50

Look over these answered cases.
The recorded GI50 for `COc1ccc2c3c([nH]c2c1)[C@H]1C[C@H]2[C@H](C[C@@H](O)[C@H](OC)[C@H]2C(=O)O)CN1CC3` is > 100 µM (inactive)

The recorded GI50 for `COc1ccc(-c2oc3cc(OC)ccc3c(=O)c2O)cc1` is 3.43 µM (inactive)

The recorded GI50 for `Cc1nc(-c2cc3c(ccc4ccccc43)oc2=O)cc2c1c(=O)oc1ccc3ccccc3c12` is > 100 µM (inactive)

The recorded GI50 for `C[O+]=C1C=CC(=C2SC(c3ccccc3)(c3ccccc3)c3ccccc32)C=C1.[O-][Cl+3]([O-])([O-])[O-]` is 25.4 µM (inactive)

The recorded GI50 for `O=C(Cc1ccccc1)c1ccc2[nH]c(=O)oc2c1` is 43.5 µM (inactive)

---
The recorded GI50 for CC(=O)N1C(OC(C)C)CC(C)N1c1ccccc1 (stereo unspecified) is > 10 µM (inactive)

The recorded GI50 for CN1CCOC1(C)CO (stereo unspecified) is > 100 µM (inactive)

The recorded GI50 for CC(C)C1OC(=O)C=C1Sc1ccccc1 (stereo unspecified) is > 100 µM (inactive)

The recorded GI50 for `CCOC(=O)/C=C(\C)Sc1cc(O)c2ccccc2c1O` is 13.9 µM (inactive)

The recorded GI50 for C=C1CC2CCCC12C=O (stereo unspecified) is > 10 µM (inactive)

The recorded GI50 for COc1cc([C@@H]2OC[C@@H]3C(c4cc(OC)c5c(c4)OCO5)OC[C@@H]32)cc(OC)c1OC (stereo partly specified) is > 100 µM (inactive)

====

# System: UO-31
# ASSAY REMARKS: NCI tumour cell line growth inhibition, 48 h
Calls of active or inactive are those of the source. No stated cut-off is given here; in the data, active = GI50 up to about 1.1 µM and inactive = higher.
Select the correct class. Options are 1.0 (active), 0.0 (inactive) and nothing else.

Example results:
# input In this assay, the call recorded for `O=C1c2ccccc2-c2nc3ccc(O)cc3n21` was what?
# output 0.0

# input In this assay, the call recorded for COc1ccc(/C(CC2OC(=O)c3ccccc32)=N\NC(=O)C[N+](C)(C)C)cc1 (stereo unspecified) was what?
# output 0.0

---
# input In this assay, the call recorded for `OC(Cc1ccccc1)(Cc1ccccc1)c1ccccc1` was what?
# output 0.0

# input In this assay, the call recorded for `C[O+]=C1C=CC(=C2SC(c3ccccc3)(c3ccccc3)c3ccccc32)C=C1.[O-][Cl+3]([O-])([O-])[O-]` was what?
# output 0.0

# input In this assay, the call recorded for Cc1c(N)nc(C2CC(=O)N2CC(N)C(N)=O)nc1C(=O)NC(C(=O)NC(C)C(O)C(C)C(=O)NC(C(=O)NCCc1nc(-c2nc(C(=O)NCCNCC(C)O)cs2)cs1)C(C)O)C(OC1OC(CO)C(O)C(O)C1OC1OC(CO)C(O)C(OC(N)=O)C1O)c1c[nH]cn1 (stereo unspecified) was what?
# output 1.0

# input In this assay, the call recorded for CCOC(=O)C1C=C2O[C@@H]3OC4(CCCCC4)O[C@@H]3C2[C@H]2C(=O)C=CC(=O)[C@@]12C(=O)OC (stereo partly specified) was what?
# output 0.0

# input In this assay, the call recorded for CC1OC(Oc2c(-c3cc(O)c(O)c(O)c3)oc3cc(O)cc(O)c3c2=O)C(O)C(O)C1O (stereo unspecified) was what?
# output 0.0
